Test system: Saccharomyces cerevisiae
Assay: protein stability index of tFT-peptide fusion (C-terminal peptide) (PSI (0-1 scale)); higher = more stable (slower turnover)
Settings: genetic background: wild type; temperature: 30 C
Measured protein stability index of individual entries
Field format: numeric only.

Example results:
>>> readout_number("KICEVAARQKWI [AAN1 C-terminal 12 aa]")
0.627
>>> readout_number("YKAVSVSANSPE [SOG2 C-terminal 12 aa]")
0.673
>>> readout_number("NWVRYSSIYYQL [YDR194W-A C-terminal 12 aa]")
0.14
>>> readout_number("GWDLRFEEDPSA [TRP5 C-terminal 12 aa]")
0.69
>>> readout_number("ELKINNDGRLVN [SEC66 C-terminal 12 aa]")
0.714
>>> readout_number("LTQVEKPRGIFD [DDC1 C-terminal 12 aa]")
0.674

*Q* Could you share which protein stability index value was measured for RGSCDNWKKRQN [YBL044W C-terminal 12 aa] ?
*A* 0.482

*Q* What value of measured protein stability index is listed for YDYLINNKTIFD [POF1 C-terminal 12 aa] ?
*A* 0.736

*Q* If you can, please state the reported protein stability index value of NSFDGLLVYLSN [CBF2 C-terminal 12 aa] .
*A* 0.661

Origin of measurements: the supplement of paper PMC10724198
